Cited source: ChEMBL document CHEMBL2321733

# Tgt: Phosphatidylinositol 4,5-bisphosphate 3-kinase catalytic subunit beta isoform (Homo sapiens)
# Sequence (P42338 whole entry, canonical isoform): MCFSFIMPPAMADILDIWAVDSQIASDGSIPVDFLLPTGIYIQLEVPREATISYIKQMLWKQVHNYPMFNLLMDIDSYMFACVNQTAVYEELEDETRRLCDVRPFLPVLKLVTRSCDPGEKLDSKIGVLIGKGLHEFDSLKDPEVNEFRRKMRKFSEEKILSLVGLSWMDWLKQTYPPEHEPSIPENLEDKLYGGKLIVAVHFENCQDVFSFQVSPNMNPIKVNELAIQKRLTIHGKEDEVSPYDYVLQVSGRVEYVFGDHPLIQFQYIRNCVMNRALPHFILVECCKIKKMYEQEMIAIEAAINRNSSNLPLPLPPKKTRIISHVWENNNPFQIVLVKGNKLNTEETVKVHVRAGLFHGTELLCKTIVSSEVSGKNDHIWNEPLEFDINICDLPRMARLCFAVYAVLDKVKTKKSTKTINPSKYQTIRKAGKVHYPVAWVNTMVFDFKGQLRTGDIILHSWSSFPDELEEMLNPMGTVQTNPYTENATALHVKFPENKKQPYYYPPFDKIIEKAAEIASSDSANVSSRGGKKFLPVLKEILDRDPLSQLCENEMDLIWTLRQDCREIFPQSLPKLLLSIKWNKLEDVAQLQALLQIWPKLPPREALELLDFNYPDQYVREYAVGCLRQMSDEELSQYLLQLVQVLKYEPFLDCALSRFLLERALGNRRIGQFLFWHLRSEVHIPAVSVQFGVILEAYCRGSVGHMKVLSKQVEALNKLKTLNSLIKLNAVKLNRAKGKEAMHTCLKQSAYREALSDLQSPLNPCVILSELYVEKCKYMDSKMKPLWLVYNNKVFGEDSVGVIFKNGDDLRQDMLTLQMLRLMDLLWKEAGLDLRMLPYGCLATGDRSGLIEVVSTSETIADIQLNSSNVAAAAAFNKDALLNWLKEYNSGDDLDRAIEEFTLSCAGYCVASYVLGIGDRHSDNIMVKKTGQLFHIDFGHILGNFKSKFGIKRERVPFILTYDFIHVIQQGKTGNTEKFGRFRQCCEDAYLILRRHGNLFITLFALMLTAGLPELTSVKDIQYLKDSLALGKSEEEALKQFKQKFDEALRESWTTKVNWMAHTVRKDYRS
# Experiment: Inhibition of PI3Kbeta (unknown origin)
pIC50: −log10 of the molar value.
Note to self: values exactly at 8 are True. So pIC50 at or above 8 is True, below is False.

Would you please look over these solved cases?
Cpd Smiles: Cc1nn2c(C(N)=O)cc(N3CCOCC3)nc2c1Cc1cccc(C(F)(F)F)c1C
Assigned Label: False
//
Cpd Smiles: Oc1cc(N2CCOCC2)nc2c(Cc3cccc(Cl)c3Cl)c(C(F)(F)F)nn12
Assigned Label: True
//
Cpd Smiles: CCc1nn2c(O)cc(-c3ccncc3)nc2c1Cc1cccc(Cl)c1Cl
Assigned Label: True
//
Cpd Smiles: Cc1nn2c(C(=O)O)cc(N3CCOCC3)nc2c1Cc1cccc(C(F)(F)F)c1C
Assigned Label: True
//
Cpd Smiles: Cc1nn2c(NO)cc(C3CCOCC3)nc2c1Cc1cccc(C(F)(F)F)c1C
Assigned Label: False
//
Cpd Smiles: Cc1c(Cc2cnn3c(O)cc(N4CCOCC4)nc23)cccc1C(F)(F)F
Assigned Label: True

Quick check: does Cc1nn2c(NCCO)cc(C3CCOCC3)nc2c1Cc1cccc(C(F)(F)F)c1C have pIC50 greater than or equal to 8?
False

Quick check: does Cc1nn2c(O)cc(N3CCOCC3)nc2c1Cc1cccc2ccccc12 have pIC50 greater than or equal to 8?
True

---

Exercise: for every item that follows, state its recorded pIC50.
# Tgt: Phosphatidylinositol 4,5-bisphosphate 3-kinase catalytic subunit delta isoform (Homo sapiens)
# Sequence (O00329 whole entry): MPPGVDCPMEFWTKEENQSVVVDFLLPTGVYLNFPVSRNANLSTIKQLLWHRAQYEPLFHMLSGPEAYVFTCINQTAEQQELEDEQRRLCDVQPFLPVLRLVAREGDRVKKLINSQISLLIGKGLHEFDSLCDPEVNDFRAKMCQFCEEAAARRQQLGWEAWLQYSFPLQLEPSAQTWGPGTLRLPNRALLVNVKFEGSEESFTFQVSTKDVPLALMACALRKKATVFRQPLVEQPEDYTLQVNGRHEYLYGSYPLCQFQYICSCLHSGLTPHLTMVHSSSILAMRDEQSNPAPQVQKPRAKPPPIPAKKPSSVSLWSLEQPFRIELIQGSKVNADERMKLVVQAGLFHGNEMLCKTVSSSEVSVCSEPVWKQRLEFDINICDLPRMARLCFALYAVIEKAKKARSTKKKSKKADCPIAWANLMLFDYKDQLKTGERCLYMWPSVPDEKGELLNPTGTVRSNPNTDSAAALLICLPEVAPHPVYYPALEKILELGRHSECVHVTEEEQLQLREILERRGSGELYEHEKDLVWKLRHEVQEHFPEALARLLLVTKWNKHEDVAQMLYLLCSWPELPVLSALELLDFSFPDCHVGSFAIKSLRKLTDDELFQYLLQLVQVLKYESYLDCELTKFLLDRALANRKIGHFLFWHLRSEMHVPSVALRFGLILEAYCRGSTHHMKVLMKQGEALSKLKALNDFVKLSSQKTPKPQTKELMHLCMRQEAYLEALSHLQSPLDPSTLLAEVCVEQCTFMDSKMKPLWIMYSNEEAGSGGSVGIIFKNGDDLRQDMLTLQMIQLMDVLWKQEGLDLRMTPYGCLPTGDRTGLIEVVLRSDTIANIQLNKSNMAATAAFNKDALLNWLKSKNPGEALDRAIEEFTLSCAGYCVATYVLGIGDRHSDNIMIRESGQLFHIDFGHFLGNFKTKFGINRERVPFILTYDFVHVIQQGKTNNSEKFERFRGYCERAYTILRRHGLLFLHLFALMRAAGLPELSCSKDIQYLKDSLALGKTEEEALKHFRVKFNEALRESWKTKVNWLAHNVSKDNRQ
# Experiment: Inhibition of PI3Kdelta (unknown origin)
pIC50: −log10 of the molar value.

For orientation, consider the following solved cases.
Cpd Smiles: Cc1nn2ccc(C3CCOCC3)nc2c1Cc1cccc(C(F)(F)F)c1C
pIC50: < 6.30

Cpd Smiles: CCc1nn2c(O)cc(C3CCOCC3)nc2c1Cc1cccc(Cl)c1Cl
pIC50: < 6.40

Cpd Smiles: Cc1nn2c(NCCO)cc(C3CCOCC3)nc2c1Cc1cccc(C(F)(F)F)c1C
pIC50: < 6.20

Cpd Smiles: Oc1cc(C2CCOCC2)nc2c(Cc3cccc(Cl)c3Cl)c(C(F)(F)F)nn12
pIC50: 7.00

I would be grateful if you could share the reported pIC50 for Cc1nn2c(NC(N)=O)cc(N3CCOCC3)nc2c1Cc1cccc(C(F)(F)F)c1C .
< 6.20

---

# Tgt: Phosphatidylinositol 4,5-bisphosphate 3-kinase catalytic subunit gamma isoform (Homo sapiens, UniProt P48736)
# Sequence (P48736 whole entry, canonical isoform): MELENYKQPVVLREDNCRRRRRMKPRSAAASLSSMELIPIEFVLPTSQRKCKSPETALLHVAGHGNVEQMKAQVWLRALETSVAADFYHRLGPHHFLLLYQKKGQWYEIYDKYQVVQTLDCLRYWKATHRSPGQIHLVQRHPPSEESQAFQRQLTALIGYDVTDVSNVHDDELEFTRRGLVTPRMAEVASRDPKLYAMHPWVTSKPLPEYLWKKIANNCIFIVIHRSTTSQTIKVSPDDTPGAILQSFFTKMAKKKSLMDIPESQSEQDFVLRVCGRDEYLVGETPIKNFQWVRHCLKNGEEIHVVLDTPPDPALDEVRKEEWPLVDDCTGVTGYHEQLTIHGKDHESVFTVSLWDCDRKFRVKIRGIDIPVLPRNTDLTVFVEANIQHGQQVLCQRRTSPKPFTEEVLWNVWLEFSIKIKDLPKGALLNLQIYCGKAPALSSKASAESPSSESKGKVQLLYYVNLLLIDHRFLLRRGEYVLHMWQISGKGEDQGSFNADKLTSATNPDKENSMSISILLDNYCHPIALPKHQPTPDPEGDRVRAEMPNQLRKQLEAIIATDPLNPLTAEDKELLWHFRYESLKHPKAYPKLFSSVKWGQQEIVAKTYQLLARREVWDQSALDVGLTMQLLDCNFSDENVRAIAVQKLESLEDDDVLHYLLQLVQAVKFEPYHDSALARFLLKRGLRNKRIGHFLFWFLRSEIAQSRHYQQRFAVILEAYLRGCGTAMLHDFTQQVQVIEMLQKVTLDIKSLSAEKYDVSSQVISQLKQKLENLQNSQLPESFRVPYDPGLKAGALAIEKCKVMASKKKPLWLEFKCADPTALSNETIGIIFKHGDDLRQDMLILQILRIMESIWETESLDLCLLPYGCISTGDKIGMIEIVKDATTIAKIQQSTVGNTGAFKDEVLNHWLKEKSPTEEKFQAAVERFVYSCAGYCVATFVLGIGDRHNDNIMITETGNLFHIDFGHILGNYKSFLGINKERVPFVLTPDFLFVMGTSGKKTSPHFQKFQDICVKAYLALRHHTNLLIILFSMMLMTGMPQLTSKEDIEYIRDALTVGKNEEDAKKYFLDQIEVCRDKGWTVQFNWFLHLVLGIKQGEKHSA
# Experiment: Inhibition of PI3Kgamma (unknown origin)
Readout Type: IC50

Cpd Smiles: Cc1nn2c(C(N)=O)cc(N3CCOCC3)nc2c1Cc1cccc(C(F)(F)F)c1C
IC50: > 6.31 µM

Cpd Smiles: Cc1nn2c(NO)cc(C3CCOCC3)nc2c1Cc1cccc(C(F)(F)F)c1C
IC50: > 6.31 µM

Query compound follows.
I would be grateful if you could share the reported IC50 for COc1cc(N2CCOCC2)nc2c(Cc3cccc(C(F)(F)F)c3C)cnn12 .
> 5.01 µM

---

# Tgt: Phosphatidylinositol 4,5-bisphosphate 3-kinase catalytic subunit alpha isoform (Homo sapiens, UniProt P42336)
# Sequence (P42336 whole entry, canonical isoform): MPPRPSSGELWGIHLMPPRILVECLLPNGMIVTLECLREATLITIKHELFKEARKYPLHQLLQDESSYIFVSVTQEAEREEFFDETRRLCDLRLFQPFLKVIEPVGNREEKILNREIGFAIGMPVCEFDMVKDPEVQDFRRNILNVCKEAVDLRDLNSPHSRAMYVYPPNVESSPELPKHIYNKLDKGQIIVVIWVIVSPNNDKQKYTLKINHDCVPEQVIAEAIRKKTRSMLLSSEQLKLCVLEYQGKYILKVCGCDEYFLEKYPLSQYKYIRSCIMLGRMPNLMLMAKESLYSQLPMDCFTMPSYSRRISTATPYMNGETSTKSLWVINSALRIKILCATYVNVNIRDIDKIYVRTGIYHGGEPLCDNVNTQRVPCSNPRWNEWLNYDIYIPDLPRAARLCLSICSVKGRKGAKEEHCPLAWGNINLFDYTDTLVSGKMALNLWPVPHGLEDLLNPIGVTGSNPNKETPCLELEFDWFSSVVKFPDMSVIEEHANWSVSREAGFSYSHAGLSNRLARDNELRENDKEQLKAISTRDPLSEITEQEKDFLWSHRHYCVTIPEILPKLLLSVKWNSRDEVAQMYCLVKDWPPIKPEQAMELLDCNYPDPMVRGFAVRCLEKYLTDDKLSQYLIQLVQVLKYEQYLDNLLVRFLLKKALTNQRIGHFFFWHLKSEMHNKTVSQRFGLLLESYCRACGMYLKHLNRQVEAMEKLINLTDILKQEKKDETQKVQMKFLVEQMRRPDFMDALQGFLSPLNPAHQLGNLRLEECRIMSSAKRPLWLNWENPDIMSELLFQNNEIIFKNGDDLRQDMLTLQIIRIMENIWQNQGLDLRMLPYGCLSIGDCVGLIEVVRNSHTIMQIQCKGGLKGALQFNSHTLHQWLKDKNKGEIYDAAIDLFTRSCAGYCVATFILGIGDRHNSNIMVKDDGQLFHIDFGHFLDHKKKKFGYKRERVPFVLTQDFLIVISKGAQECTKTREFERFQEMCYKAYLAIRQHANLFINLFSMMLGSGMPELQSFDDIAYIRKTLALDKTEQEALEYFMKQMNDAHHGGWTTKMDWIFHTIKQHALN
# Experiment: Inhibition of PI3Kalpha (unknown origin)
Exercise: for every item that follows, state its recorded IC50.

For orientation, consider the following solved cases.
Cpd Smiles: CNc1cc(N2CCOCC2)nc2c(Cc3cccc(C(F)(F)F)c3C)c(C)nn12
IC50: > 1.58 µM

Cpd Smiles: CCc1nn2c(O)cc(C3CCOCC3)nc2c1Cc1cccc(Cl)c1Cl
IC50: > 1.58 µM

Cpd Smiles: CC(=O)Nc1cc(N2CCOCC2)nc2c(Cc3cccc(C(F)(F)F)c3C)c(C)nn12
IC50: > 2 µM

Could I get IC50 for every one of these entries?
1. Cc1nn2c(O)cc(C3CCOCC3)nc2c1Cc1cccc(C(F)(F)F)c1C
2. Cc1nn2c(NCCO)cc(C3CCOCC3)nc2c1Cc1cccc(C(F)(F)F)c1C
3. Cc1nn2c(C(N)=O)cc(N3CCOCC3)nc2c1Cc1cccc(C(F)(F)F)c1C
4. COc1cc(N2CCOCC2)nc2c(Cc3cccc(C(F)(F)F)c3C)cnn12
5. Cc1nn2c(NO)cc(C3CCOCC3)nc2c1Cc1cccc(C(F)(F)F)c1C
6. Cc1nn2c(NC(N)=O)cc(N3CCOCC3)nc2c1Cc1cccc(C(F)(F)F)c1C

> 1.58 µM
> 1.58 µM
> 6.31 µM
> 5.01 µM
> 1.58 µM
> 6.31 µM

I would be grateful if you could share the reported IC50 for Cc1c(Cc2cnn3c(Cl)cc(N4CCOCC4)nc23)cccc1C(F)(F)F .
> 5.01 µM

---

# Tgt: Phosphatidylinositol 4,5-bisphosphate 3-kinase catalytic subunit gamma isoform (Homo sapiens, UniProt P48736)
# Experiment: Inhibition of PI3Kgamma (unknown origin)
pIC50: −log10 of the molar value.
Readout Type: pIC50

Cpd Smiles: CCc1nn2c(O)cc(C3CCOCC3)nc2c1Cc1cccc(Cl)c1Cl
Readout Type: pIC50
Result: < 5.10

Cpd Smiles: Nc1nn2c(O)cc(C3CCOCC3)nc2c1Cc1cccc(Cl)c1Cl
Readout Type: pIC50
Result: < 5.40

Cpd Smiles: Cc1c(Cc2cnn3c(Cl)cc(N4CCOCC4)nc23)cccc1C(F)(F)F
Readout Type: pIC50
Result: < 5.30

Cpd Smiles: Cc1nn2c(C(=O)O)cc(N3CCOCC3)nc2c1Cc1cccc(C(F)(F)F)c1C
Readout Type: pIC50
Result: < 5.20

Cpd Smiles: CC(=O)Nc1cc(N2CCOCC2)nc2c(Cc3cccc(C(F)(F)F)c3C)c(C)nn12
Readout Type: pIC50
Result: < 5.30

Cpd Smiles: Cc1c(Cc2c(=O)[nH]n3c(=O)cc(C4CCOCC4)[nH]c23)cccc1C(F)(F)F
Readout Type: pIC50
Result: < 5.30

Cpd Smiles: CNc1cc(N2CCOCC2)nc2c(Cc3cccc(C(F)(F)F)c3C)c(C)nn12
Readout Type: pIC50
Result: < 5.20

Cpd Smiles: Cc1nn2c(C#N)cc(N3CCOCC3)nc2c1Cc1cccc(C(F)(F)F)c1C
Readout Type: pIC50
Result: < 5.50

Cpd Smiles: Cc1nn2c(NC(N)=O)cc(N3CCOCC3)nc2c1Cc1cccc(C(F)(F)F)c1C
Readout Type: pIC50
Result: < 5.20

Cpd Smiles: Cc1nn2c(N)cc(N3CCOCC3)nc2c1Cc1cccc(C(F)(F)F)c1C
Readout Type: pIC50
Result: < 5.83

I would be grateful if you could share the reported pIC50 for Oc1cc(C2CCOCC2)nc2c(Cc3cccc(Cl)c3Cl)c(C(F)(F)F)nn12 .
< 5.20
